molecules and their reported GI50
Tested on: MOLT-4 leukemia
Assay: NCI tumour cell line growth inhibition, 48 h

# example entries with known answers
MOLECULE: CN1CCC(n2cnc(-c3ccc(F)cc3)c2-c2ccnc(Nc3ccccc3)n2)CC1
GI50: 12 µM
--
MOLECULE: COc1ccc(-n2nc(C(=O)c3ccccc3)c3nn4c(=O)cc(-c5ccccc5)nc4nc32)cc1
GI50: 34.8 µM
--
MOLECULE: NC1=CC(=O)C(=O)c2ccccc21
GI50: 22.4 µM

Task: Which GI50 is listed for Nc1ncc(-c2ccc3ncnc(N4CCc5cc(F)c(Cl)cc54)c3c2)cc1C(F)(F)F ?
Output: 2.13 µM

Task: Which GI50 is listed for Cc1ccc(Nn2c(SCC(=O)Nc3nc(-c4ccccc4)cs3)nc(C)c2C)cc1 ?
Output: 3.46 µM

Task: Which GI50 is listed for CC12OC(C(=O)C13CCC3)C1C(=O)c3c(O)ccc(O)c3C(=O)C12 (stereo unspecified) ?
Output: 0.123 µM

----------
Test system: KM12 colon
Assay: NCI tumour cell line growth inhibition, 48 h; in the data active means GI50 below about 0.43 µM; inactive means the rest
Hi! Could you answer with just one of these? True = active, False = inactive

Task: Record request — test call for O=C(Oc1c(Cl)c(Cl)c(Cl)c(Cl)c1Cl)C1CCCN1C(=O)OCc1ccccc1 (stereo not given)
Output: False

Task: Record request — test call for O=C1Nc2cc(-c3ccc(O)cc3)ccc2/C1=C/c1ccc[nH]1
Output: True

Task: Record request — test call for O=CCC(O)C(O)C(O)CO (stereo not given)
Output: False

Task: Record request — test call for CC1=CC[C@@H]2C(=O)C=CC=C[C@H]12.[C-]#[O+].[C-]#[O+].[C-]#[O+].[Fe]
Output: False

Task: Record request — test call for COc1ccc(-c2cncn2-c2ccc(-c3nc4cc(OC)c(OC)c(OC)c4s3)cc2)cc1N
Output: False

----------
Test system: DU-145 prostate
Test: NCI tumour cell line growth inhibition, 48 h
METRIC: TGI

MOLECULE: CN(C)c1ccc(/C=C2\C[C@H]3[C@@H]4CC=C5C[C@@H](O)CC[C@]5(C)[C@H]4CC[C@]3(C)[C@H]2O)cc1
EXPERIMENTAL_TARGET: DU-145 prostate
TGI: > 100 µM
//
MOLECULE: N#Cc1n[nH]n(-c2ccccc2)c1=O
EXPERIMENTAL_TARGET: DU-145 prostate
TGI: > 100 µM
//
MOLECULE: NC(=S)NN=C1Cc2ccccc2C1
EXPERIMENTAL_TARGET: DU-145 prostate
TGI: > 100 µM
//
MOLECULE: Clc1ccc(C2=Cc3nc2c(-c2ccccc2)c2ccc([nH]2)c(-c2ccccc2)c2nc(c(-c4ccccc4)c4ccc([nH]4)c3-c3ccccc3)C=C2)cc1
EXPERIMENTAL_TARGET: DU-145 prostate
TGI: > 62.5 µM
//
MOLECULE: O=CCC(O)C(O)C(O)CO (stereo not drawn)
EXPERIMENTAL_TARGET: DU-145 prostate
TGI: > 100 µM
//
MOLECULE: C/C(=N\NC(N)=S)C(CN1CCCCC1)C(C1=C(O)c2ccccc2OC1)c1ccccc1 (stereo not drawn)
EXPERIMENTAL_TARGET: DU-145 prostate
TGI: > 100 µM
//
MOLECULE: CCC1C[N+]2=C(c3cc(OC)c(OC)cc3CC2)c2c1cc1n2CCc2cc(OC)c(OC)cc2-1 (stereo not drawn)
EXPERIMENTAL_TARGET: DU-145 prostate
TGI: 36.8 µM
//
MOLECULE: CC12OC(C(=O)C13CCC3)C1C(=O)c3c(O)ccc(O)c3C(=O)C12 (stereo not drawn)
EXPERIMENTAL_TARGET: DU-145 prostate
TGI: 19.5 µM
//
MOLECULE: CC(C)(C)COS(=O)OCC(C)(C)C
EXPERIMENTAL_TARGET: DU-145 prostate
TGI: > 100 µM
//
MOLECULE: C=C(C)[C@@H]1CC[C@]2(COC(=O)c3ccccc3C(=O)O)CC[C@]3(C)[C@H](CC[C@@H]4[C@@]5(C)CC[C@H](OC(=O)c6ccccc6C(=O)O)C(C)(C)[C@@H]5CC[C@]43C)[C@@H]12
EXPERIMENTAL_TARGET: DU-145 prostate
TGI: > 100 µM

Task: Which TGI is listed for Cc1cc(=O)[nH]c(Sc2ccc([N+](=O)[O-])cc2[N+](=O)[O-])n1 ?
Output: 43.5 µM

Task: Which TGI is listed for COC(OC)[C@@H]1OC[C@H](n2ccc(=O)[nH]c2=O)[C@H]1O ?
Output: > 100 µM

Task: Which TGI is listed for CNc1ccc(Cl)cc1C(=O)N1CCC[C@H]1CO ?
Output: > 100 µM

Task: Which TGI is listed for CCC12CN(C(=O)OC)C3C(Br)C1CCC(=O)C32 (stereo not drawn) ?
Output: > 100 µM

Task: Which TGI is listed for C#C[C@]1(O)[C@@H](CO)O[C@@H](n2ccc(=O)[nH]c2=O)[C@@H]1O ?
Output: 0.695 µM

----------
compounds and their reported TGI
System: COLO 205 colon
Test: NCI tumour cell line growth inhibition, 48 h
Where a SMILES comes first, the peptide text is derived from it. Peptide text beside a SMILES is read from it. [ ]: non-standard residue; d: D form. The star is where a group is joined. * marks the point of attachment. Hyp = O=C(O)[CH]1C[CH](O)CN1; Cbz = O=C(OCc1ccccc1)*

COMPOUND: CCOC(=O)CCC(NC(=O)CNC(=O)CNC(=O)C(CCC(=O)OCC)NC(=O)C(CCC(=O)OCC)NC(=O)C(CCC(=O)OCC)NC(=O)OCc1ccccc1)C(=O)NC(CCC(=O)OCC)C(=O)NC(CCC(=O)OCC)C(=O)OCC (centres undefined) (Cbz-E(OEt)E(OEt)E(OEt)GGE(OEt)E(OEt)E(OEt)-OEt; configuration not given here)
METRIC: TGI
VALUE_REPORTED: > 75 µM

Task: Test system COLO 205 colon; read-out TGI; what value for COc1ccc(/C=C2/C(=O)N(/C=C3\C(=O)Oc4ccccc4C3=O)C(=NC(C)=O)N2C)cc1OC ?
Output: > 100 µM

Task: Test system COLO 205 colon; read-out TGI; what value for CCCCCCCCCc1cc(=O)c2c(O)cc(O)cc2o1 ?
Output: 54.2 µM

Task: Test system COLO 205 colon; read-out TGI; what value for CC(O)/C=C/C1OC(=O)CC1Nc1ccc(C=O)cc1 (centres undefined) ?
Output: > 100 µM

Task: Test system COLO 205 colon; read-out TGI; what value for Cn1c(=S)c2[nH]c(SCc3cccnc3)nc2n(C)c1=O ?
Output: > 100 µM

Task: Test system COLO 205 colon; read-out TGI; what value for NC(=O)CNC(=O)C1CC(O)CN1C(=O)C1CCCN1C(=O)OCc1ccccc1 (stereo not drawn) (Cbz-Pro-[Hyp]-Gly-NH2; configuration not given here) ?
Output: > 100 µM

Task: Test system COLO 205 colon; read-out TGI; what value for N#Cc1n[nH]n(-c2ccccc2)c1=O ?
Output: > 100 µM

Task: Test system COLO 205 colon; read-out TGI; what value for COC(=O)C(Cc1ccccc1)NP(=O)(O)OCC1OC(n2ccc(N)nc2=O)C(O)C1O (centres undefined) ?
Output: > 100 µM

Task: Test system COLO 205 colon; read-out TGI; what value for COc1cc2ccnc(-c3n[nH]c4cc(OC)c(OC)cc34)c2cc1OC ?
Output: > 100 µM

Task: Test system COLO 205 colon; read-out TGI; what value for Nc1ccccc1-n1c2c(c3ccccc3c1=O)C(=O)c1ccccc1-2 ?
Output: > 100 µM

----------
Tested on: CAKI-1 renal
Experiment: NCI tumour cell line growth inhibition, 48 h
compounds and their reported TGI

# example entries with known answers
COMPOUND: COc1ccc(-c2n[nH]c3nc4ccccc4n3c2=O)cc1
TGI: > 100 µM
--
COMPOUND: Nc1ccc(Cc2ccc(N)c(C(=O)O)c2)cc1C(=O)O
TGI: > 100 µM
--
COMPOUND: Nc1n[nH]c2cc(F)c([C@@H]3Nc4c(F)cc5[nH]ncc5c4[C@H]4C5CCC(C5)[C@@H]34)cc12 (stereo partly specified)
TGI: 3.38 µM
--
COMPOUND: Nc1nc(N)c2cc(S(=O)(=O)c3ccccc3)ccc2n1
TGI: > 100 µM
--
COMPOUND: N#CC1=C(N)Oc2c(ccc3cccnc23)C1c1ccccc1 (stereo unspecified)
TGI: > 100 µM

Lab note: next compound to report on.
Task: Which TGI is listed for CC(C)CCCC(C)[C@H]1CCC2C3CC=C4C[C@@H](OC(=O)CC(CC(=O)[O-])C(=O)[O-])CC[C@]4(C)C3CC[C@@]21C.N.N.[Pt+4] (stereo partly specified) ?
Output: > 100 µM
